Target: T1, EsCas13d, nuclease-dead (Eubacterium siraeum, UniProt B0MS50, R295A;H300A;R849A;H854A)
T1 sequence: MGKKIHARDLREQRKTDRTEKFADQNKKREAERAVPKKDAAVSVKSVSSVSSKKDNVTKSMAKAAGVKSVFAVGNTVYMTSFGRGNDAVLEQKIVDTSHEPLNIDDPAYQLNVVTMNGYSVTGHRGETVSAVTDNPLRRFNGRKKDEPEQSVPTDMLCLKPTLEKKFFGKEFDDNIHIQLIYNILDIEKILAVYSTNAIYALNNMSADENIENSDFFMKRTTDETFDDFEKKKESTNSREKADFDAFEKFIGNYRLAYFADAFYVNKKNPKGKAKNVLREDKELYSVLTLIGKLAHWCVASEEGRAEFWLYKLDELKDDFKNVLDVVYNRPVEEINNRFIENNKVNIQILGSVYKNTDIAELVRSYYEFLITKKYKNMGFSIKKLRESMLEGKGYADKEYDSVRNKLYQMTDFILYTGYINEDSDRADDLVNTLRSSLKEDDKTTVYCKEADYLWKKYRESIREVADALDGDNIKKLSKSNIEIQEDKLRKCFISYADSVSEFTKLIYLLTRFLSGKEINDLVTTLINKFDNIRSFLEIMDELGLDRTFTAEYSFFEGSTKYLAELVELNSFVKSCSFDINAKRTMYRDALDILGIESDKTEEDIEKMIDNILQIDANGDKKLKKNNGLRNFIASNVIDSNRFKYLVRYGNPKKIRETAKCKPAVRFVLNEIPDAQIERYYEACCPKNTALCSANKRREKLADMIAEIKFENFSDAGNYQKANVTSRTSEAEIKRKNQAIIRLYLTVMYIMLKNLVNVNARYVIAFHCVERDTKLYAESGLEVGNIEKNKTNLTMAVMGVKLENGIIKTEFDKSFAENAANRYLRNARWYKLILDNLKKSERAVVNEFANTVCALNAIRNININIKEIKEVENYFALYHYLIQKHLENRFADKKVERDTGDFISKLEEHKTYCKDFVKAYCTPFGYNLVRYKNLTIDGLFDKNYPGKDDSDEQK
Test: crRNA (strand 1, pre-loaded); Mg2+; 40 mM Tris-HCl pH 7.5, 150 mM NaCl, 6 mM MgCl2, 1 mM DTT, 0.1% Tween-20, 0.2 mg/ml BSA; 25 C; 10 min per concentration, then washed
Settings: tags: His6-TwinStrep-SUMO cleaved; N-terminal SNAP kept (SNAP-Surface 488); label: 3' end held by stalled T7 RNA polymerase
metric: pKd
Give bare numbers, as −log10 of the molar value.

binder	pKd
target 1 insA 3' of 7,insG 3' of 6 (mixed) RNA 1: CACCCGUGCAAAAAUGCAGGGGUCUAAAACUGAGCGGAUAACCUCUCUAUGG RNA 2: GGGAAUGGAUCCACAUCUACGAAUUCGUACCAUAGAGAGGUUAUCACGGCUCACCGAGAUCGGAAGAGCACACGU	8.09
target 1 insU 3' of 17,insU 3' of 9 (mixed) RNA 1: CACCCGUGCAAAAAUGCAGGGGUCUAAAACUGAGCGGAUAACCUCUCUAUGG RNA 2: GGGAAUGGAUCCACAUCUACGAAUUCGUACCAUAGUAGAGGUUAUUCCGCUCACCGAGAUCGGAAGAGCACACGU	7.40
target 2 MT 5'PFS GUG 3'PFS AUU (mixed) RNA 1: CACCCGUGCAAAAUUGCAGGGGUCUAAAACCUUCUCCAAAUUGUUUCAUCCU RNA 2: GGGAAUGGAUCCACAUCUACGAAUUCGUGAGGAUGAAACAAUUUGGAGAAGAUUAGAUCGGAAGAGCACACGU	7.95
target 1 insC 3' of 20,insG 3' of 18 (mixed) RNA 1: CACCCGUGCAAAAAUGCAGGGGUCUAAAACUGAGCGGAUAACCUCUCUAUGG RNA 2: GGGAAUGGAUCCACAUCUACGAAUUCGUACCACUAGGAGAGGUUAUCCGCUCACCGAGAUCGGAAGAGCACACGU	7.89
target 2 MT 5'PFS AGA 3'PFS AAA (mixed) RNA 1: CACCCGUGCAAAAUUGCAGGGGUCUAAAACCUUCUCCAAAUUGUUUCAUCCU RNA 2: GGGAAUGGAUCCACAUCUACGAAUUCAGAAGGAUGAAACAAUUUGGAGAAGAAAAGAUCGGAAGAGCACACGU	8.35
target 1 G5U,A9C (mixed) RNA 1: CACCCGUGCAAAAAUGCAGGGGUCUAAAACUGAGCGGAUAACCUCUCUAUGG RNA 2: GGGAAUGGAUCCACAUCUACGAAUUCGUACCAUAGAGAGGUUCUCCUCUCACCGAGAUCGGAAGAGCACACGU	7.22

Provide pKd values for the following items, in order.
1. target 1 MT 5'PFS CUU 3'PFS AAU (mixed) RNA 1: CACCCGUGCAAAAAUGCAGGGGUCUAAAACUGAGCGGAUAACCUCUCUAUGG RNA 2: GGGAAUGGAUCCACAUCUACGAAUUCCUUCCAUAGAGAGGUUAUCCGCUCAAAUAGAUCGGAAGAGCACACGU
2. target 1 insU 3' of 20,insA 3' of 8 (mixed) RNA 1: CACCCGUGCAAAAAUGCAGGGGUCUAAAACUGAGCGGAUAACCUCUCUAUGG RNA 2: GGGAAUGGAUCCACAUCUACGAAUUCGUACCAUUAGAGAGGUUAUACCGCUCACCGAGAUCGGAAGAGCACACGU
3. target 1 insC 3' of 20,insU 3' of 14 (mixed) RNA 1: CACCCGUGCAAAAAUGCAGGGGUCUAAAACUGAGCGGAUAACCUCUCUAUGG RNA 2: GGGAAUGGAUCCACAUCUACGAAUUCGUACCACUAGAGAUGGUUAUCCGCUCACCGAGAUCGGAAGAGCACACGU
4. target 1 insG 3' of 22,insC 3' of 20 (mixed) RNA 1: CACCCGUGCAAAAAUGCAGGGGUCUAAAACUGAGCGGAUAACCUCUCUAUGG RNA 2: GGGAAUGGAUCCACAUCUACGAAUUCGUACGCACUAGAGAGGUUAUCCGCUCACCGAGAUCGGAAGAGCACACGU

Result:
1. 7.24
2. 7.60
3. 8.26
4. 8.08

Could you report pKd for every entry in the following list?
1. target 2 MT 5'PFS GGU 3'PFS UCG (mixed) RNA 1: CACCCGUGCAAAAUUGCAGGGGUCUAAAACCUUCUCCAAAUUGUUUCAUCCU RNA 2: GGGAAUGGAUCCACAUCUACGAAUUCGGUAGGAUGAAACAAUUUGGAGAAGUCGAGAUCGGAAGAGCACACGU
2. target 1 insU 3' of 14,insA 3' of 4 (mixed) RNA 1: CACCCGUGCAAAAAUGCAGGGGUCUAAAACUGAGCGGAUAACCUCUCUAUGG RNA 2: GGGAAUGGAUCCACAUCUACGAAUUCGUACCAUAGAGAUGGUUAUCCGCAUCACCGAGAUCGGAAGAGCACACGU

Result:
1. 7.54
2. 7.59
